As shown below, each of these compounds has a reported TGI value.
test system: RPMI-8226 leukemia; experiment: NCI tumour cell line growth inhibition, 48 h

Before answering, review these 3 worked examples.
> print(dat)
                                   compound    result
1                COC(=O)/C(C=O)=C/Sc1ccccc1  > 100 µM
2                CN(NC(=O)c1cccs1)C1=NCCCN1  > 100 µM
3  COc1cc2c(cc1O)C1Cc3ccc(OC)c(O)c3C(C2)N1C (configuration not stated)  > 100 µM

Fill in the blank: the reported TGI of N#Cc1nc(-c2cccs2)oc1N is ____. > 100 µM

Can you look up the measured TGI of Cc1ccc2c(=O)cc(-c3cccs3)[nH]c2n1 for me? > 49.4 µM

Need TGI, item COc1ccc2ncn(-c3cc(O[C@H](C)c4ccccc4Cl)c(C(N)=O)s3)c2c1 8.71 µM

// TGI lookup, key: COc1cc(Nc2c3ccccc3nc3ccccc23)ccc1NS(C)(=O)=O > 100 µM

// query TGI value for entry O=c1nc2c(c(-c3ccccc3Cl)[nH]1)COC/C2=C\c1ccccc1Cl > 100 µM

State the recorded TGI for this entry: COc1cc(C)c2c(c1C)OC(=O)c1c(C)c(Cl)c(O)c(C=O)c1O2 33.4 µM

Which TGI is reported for this compound? C=C1C(=O)CC2C(=O)C(C)(O)CC/C=C(\C)C(=O)CC12 (configuration not stated) 82.9 µM

For the compound C1C[OH+]CCNCC[OH+]CC[OH+]CCN1.[Cl-].[Pt+4] , what TGI is on record? > 100 µM

Requested read-out: TGI. Entry: COC(=O)C1=C(C(=O)OC)SC2(S1)C1=C(CCCC1)SC(C(=O)OC)=C2C(=O)OC 17.7 µM
